Origin of values: patent US7625905B2

Here the recorded pIC50 is given for each entry.
test target: CCR5 (Homo sapiens, UniProt P51681)
Sequence (P51681 whole entry, the tested form may be a part): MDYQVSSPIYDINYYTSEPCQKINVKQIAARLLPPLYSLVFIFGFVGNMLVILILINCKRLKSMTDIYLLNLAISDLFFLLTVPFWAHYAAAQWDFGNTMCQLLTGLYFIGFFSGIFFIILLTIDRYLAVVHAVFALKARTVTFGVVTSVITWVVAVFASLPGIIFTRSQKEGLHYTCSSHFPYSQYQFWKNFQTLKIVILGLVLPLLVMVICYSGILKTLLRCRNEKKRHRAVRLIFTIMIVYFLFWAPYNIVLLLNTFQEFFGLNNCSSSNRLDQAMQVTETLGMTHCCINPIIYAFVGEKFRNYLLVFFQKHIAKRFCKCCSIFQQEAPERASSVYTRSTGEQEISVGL
assay info: CCR5-mediated CCF (cell-cell fusion) assay, Hela-R5 / CEM-NKr-CCR5-Luc luciferase readout
Assay type: cell-based
Design: host or cells: CEM-NKr-CCR5-Luc cells, co-cultured with Hela-R5 cells expressing gp160 and Tat
condition summary: Hela-R5 and CEM-NKr-CCR5-Luc co-culture 24 hrs
pIC50: −log10 of the molar value.
endpoint: pIC50

- Cc1ncnc(C)c1C(=O)N1CC2CN(CCC3(c4cccc(F)c4)CCN(C(=O)c4ccccc4)CC3)CC2C1 (centres unmarked): 6.51
- Cc1cc(C#N)nc(C)c1C(=O)N1CC2CN(CCC3(c4ccccc4)CCN(C(=O)C(C)(C)C)C3)CC2C1 (centres unmarked): 6.44
- Cc1ncnc(C)c1C(=O)N1CC2CN(CCC3(c4ccccc4)CCN(C(=O)OC(C)(C)C)CC3)CC2C1 (centres unmarked): 6.08
- Cc1ncnc(C)c1C(=O)N1CC2CN(CCC(c3cccc(F)c3)C3CN(S(=O)(=O)c4cccc(F)c4)C3)CC2C1 (centres unmarked): 8.38
- Cc1ncnc(C)c1C(=O)N1CC2CN(CCC3(c4cccc(F)c4)CCN(C(=O)c4cccc(S(=O)(=O)N(C)C)c4)CC3)CC2C1 (centres unmarked): 6.41
- Cc1ncnc(C)c1C(=O)N1CC2CN(CCC3(c4ccccc4)CN(C(=O)C4CCC(F)(F)CC4)C3)CC2C1 (centres unmarked): 8.02
- Cc1ncnc(C)c1C(=O)N1CC2CN(CCC(c3ccccc3)C3CN(C(=O)C(C)C)C3)CC2C1 (centres unmarked): 6.34
- COC(=O)N1CCC(C(CCN2CC3CN(C(=O)c4c(C)ncnc4C)CC3C2)c2ccccc2)CC1 (centres unmarked): 6.13
- Cc1ncnc(C)c1C(=O)N1CC2CN(CCC3(c4ccccc4)CN(C(=O)CC4CCCC4)C3)CC2C1 (centres unmarked): 6.87
- Cc1ncnc(C)c1C(=O)N1CC2CN(CCC3(c4ccccc4)CN(S(=O)(=O)C4CCCC4)C3)CC2C1 (centres unmarked): 6.34
- Cc1cc(=O)oc(C)c1C(=O)N1CC2CN(CCC3(c4ccccc4)CN(C(=O)C4CCC(F)(F)CC4)C3)CC2C1 (centres unmarked): 8.59
- Cc1ncnc(C)c1C(=O)N1CC2CN(CCC3(c4ccccc4)CCN(C(=O)c4cccc(S(=O)(=O)N(C)C)c4)CC3)CC2C1 (centres unmarked): 5.92
- Cc1ncnc(C)c1C(=O)N1CC2CN(CCC3(c4ccccc4)CN(C(=O)C4(C(F)(F)F)CC4)C3)CC2C1 (centres unmarked): 6.31
- Cc1ncnc(C)c1C(=O)N1CC2CN(CCC3(c4ccccc4)CCN(C(=O)c4ccc(S(N)(=O)=O)cc4)CC3)CC2C1 (centres unmarked): 5.60
